The reported numbers originate from paper PMC12278311.

- target-of-assay: T1, PNUTS TND (rat PNUTS 5-160, C48S) (rat, UniProt O55000 5-160, C48S)
- T1 construct: PNUTS (PPP1R10), rat, N-terminal TFIIS domain, residues 5-160; cloned in pRP1b; 15N-labelled for NMR; also called PNUTS N-terminal domain; PNUTS NTD; source: E. coli BL21 (DE3), purified (HisTrap, TEV cleavage, Ni-NTA flow-through, SEC)
- T1 sequence (looked up): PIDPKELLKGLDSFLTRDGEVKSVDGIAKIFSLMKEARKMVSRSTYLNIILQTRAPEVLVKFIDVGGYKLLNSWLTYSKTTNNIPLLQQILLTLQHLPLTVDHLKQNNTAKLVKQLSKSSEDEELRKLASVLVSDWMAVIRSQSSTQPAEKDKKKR
- assay-notes: ITC; Tox4 titrated into PNUTS at 25°C; 20 mM Tris pH 8.5, 150 mM NaCl, 0.1 mM ZnSO4, 0.5 mM TCEP; one-site model assuming 1:1
- run-parameters: both partners purified
reported-property: pKd
One number for each entry, as −log10 of the molar value.

# pKd lookup, item Tox4 CTD (human Tox4 571-621, C601S) (domain or fragment, UniProt O94842 571-621, looked up, TOX4, human, C-terminal domain, residues 571-621; also called Tox4_(C601S); source: E. coli BL21 (DE3) with 0.1 mM ZnSO4, purified (HisTrap, TEV cleavage, amylose resin, SEC); not shown: His6, N-terminal, cleaved; MBP, N-terminal, cleaved) RCVRSGCENPPIVSKDWDNEYCSNECVVKHSRDVFLAWVASRNSNTVVFVK
9.52
